Listed here: items and their measured ED50.
- Test system: Rattus norvegicus
- method-summary: In vivo antinociceptive activity was determined using in rat abdominal irritant test (RAIT) assay
- Assay type: functional
- cond: Abdomen
Use mg/kg as the unit, but write only the number.

# count of solved cases: 3
Brc1cscc1Cc1c[nH]cn1.O=C(O)/C=C/C(=O)O = 0.38
CCc1cc(Cc2c[nH]cn2)c(CC)s1.O=C(O)/C=C/C(=O)O = 0.31
Cc1cscc1C(C)c1c[nH]cn1.O=C(O)/C=C/C(=O)O (configuration not stated) = 0.27

Now for a further molecule.
Entry Clc1cc(Cc2c[nH]cn2)c(Cl)s1.O=C(O)/C=C/C(=O)O ; ED50 = 3.2

---

- System: Rattus norvegicus
- method-summary: In vivo antinociceptive activity was determined using in rat abdominal irritant test (RAIT) assay
- Assay type: functional
- cond: Abdomen
ED50 under 2 mg/kg gets Y, anything at or over 2 mg/kg gets N.

Known results for molecules:
CCc1sccc1Cc1c[nH]cn1.O=C(O)/C=C/C(=O)O = Y
Cc1sccc1Cc1c[nH]cn1.O=C(O)/C=C/C(=O)O = Y
Brc1csc(Cc2c[nH]cn2)c1Br.Cl = N
CCc1cscc1C(C)c1c[nH]cn1.O=C(O)/C=C/C(=O)O (stereo not drawn) = Y
O=C(O)/C=C/C(=O)O.c1ccc2c(Cc3c[nH]cn3)csc2c1 = Y
Cc1csc(Cc2c[nH]cn2)c1C.Cl = N

Pending molecule:
Q: Please check: ED50 for Cc1sccc1C(C)c1c[nH]cn1.O=C(O)/C=C/C(=O)O (stereo not drawn) , strictly under 2 mg/kg or not?
A: Y
